# procedureSummary: Solubility of compound (Ic) in lipids, surfactants and pharmaceutical cosolvents
# Format: physicochemical
# conditionInfo: aqueous with cosolvent or surfactant or cyclodextrin; in Cremophor RH40 (POE hydrogenated castor oil); read-out: solubility
endpointName: solubility (mg/mL)
Enter your answer as a number in mg/mL; do not include the unit.

Sample CS(=O)(=O)C(=C1CN(C(c2ccc(Cl)cc2)c2ccc(Cl)cc2)C1)c1cc(F)cc(F)c1 [Compound (Ic)] ; solubility observed: 80.6

====

# procedureSummary: Oral bioavailability in preclinical studies in rats
# conditionInfo: rat, in vivo, solution of 25 mg/mL in Miglyol 812N, dose 10 mg/kg
endpointName: bioavailability (%)
Enter your answer as a number in %; do not include the unit.

Sample `CS(=O)(=O)C(=C1CN(C(c2ccc(Cl)cc2)c2ccc(Cl)cc2)C1)c1cc(F)cc(F)c1` ; bioavailability observed: 37
